Cited source: patent US7022736B2

Recorded IC50 for the following compounds
TARGET_DESC: HCV RdRp (NS5B RNA-dependent RNA polymerase) (Hepatitis C virus genotype 1b, UniProt P26663)
Construct: The HCV NS5B protein is the viral RdRp; made in house; host or cells: insect cells infected with recombinant baculovirus
Sequence (P26663 2420-3010): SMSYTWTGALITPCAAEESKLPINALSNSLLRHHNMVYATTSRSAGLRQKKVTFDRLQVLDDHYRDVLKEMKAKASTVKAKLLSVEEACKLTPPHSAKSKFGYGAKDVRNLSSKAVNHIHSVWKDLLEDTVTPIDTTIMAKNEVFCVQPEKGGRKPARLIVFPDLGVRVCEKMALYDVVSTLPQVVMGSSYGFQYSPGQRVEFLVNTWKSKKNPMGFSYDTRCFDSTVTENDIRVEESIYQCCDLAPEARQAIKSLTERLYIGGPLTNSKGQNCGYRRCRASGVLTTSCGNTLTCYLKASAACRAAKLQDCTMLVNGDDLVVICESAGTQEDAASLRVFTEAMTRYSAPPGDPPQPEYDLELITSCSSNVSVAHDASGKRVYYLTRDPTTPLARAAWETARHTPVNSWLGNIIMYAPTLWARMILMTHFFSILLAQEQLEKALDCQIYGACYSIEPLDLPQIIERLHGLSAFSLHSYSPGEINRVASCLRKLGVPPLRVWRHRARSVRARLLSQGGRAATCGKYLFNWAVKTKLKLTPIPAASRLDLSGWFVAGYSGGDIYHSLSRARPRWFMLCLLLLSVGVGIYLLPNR
ASSAY_DETAILS: Inhibition of hepatitis C virus RdRp (poly(A)/oligo(U), [3H]UTP incorporation)
Type: biochemical
EXPERIMENTAL_SETUP: Tables I-VIII; 20 nM NS5B, 1 hour at 22° C.; read-out: IC 50 (μM), HCV-polymerase
Provide only the numeric value, understood in µM.

Some compounds with recorded IC50:
O=C(O)C(O)=CC(=O)c1cccc(NC(=O)c2ccccc2Cl)c1; 13
O=C(O)C(O)=CC(=O)c1ccccc1; 5.6
O=C(O)C(O)=CC(=O)c1cc(I)cn1Cc1ccc(F)cc1; 18

-- ask Endpoint output: IC50 of O=C(O)C(O)=CC(=O)c1ccc(-c2ccccc2)s1 . Value?
-- reply 15

-- ask Endpoint output: IC50 of O=C(O)C(O)=CC(=O)c1cccc(NS(=O)(=O)c2cc(Cl)sc2Cl)c1 . Value?
-- reply 0.48

-- ask Endpoint output: IC50 of O=C(O)C(O)=CC(=O)c1ccccc1Cc1ccc(F)cc1 . Value?
-- reply 8.3

-- ask Endpoint output: IC50 of CC(C)(C)C(=O)C=C(O)C(=O)O . Value?
-- reply 37

-- ask Endpoint output: IC50 of Cc1cc(S(=O)(=O)Nc2cccc(C(=O)C=C(O)C(=O)O)c2)c(Cl)cc1Cl . Value?
-- reply 0.55

-- ask Endpoint output: IC50 of O=C(O)C(O)=CC(=O)c1ccsc1Cc1ccccc1F . Value?
-- reply 8.6

-- ask Endpoint output: IC50 of O=C(O)C(O)=CC(=O)c1sccc1Sc1ccccc1 . Value?
-- reply 12.6

====

Recorded IC50 for the following compounds
TARGET_DESC: HCV RdRp (NS5B RNA-dependent RNA polymerase) (Hepatitis C virus genotype 1b, UniProt P26663)
Construct: The HCV NS5B protein is the viral RdRp; made in house; host or cells: insect cells infected with recombinant baculovirus
ASSAY_DETAILS: Inhibition of hepatitis C virus RdRp (poly(A)/oligo(U), [3H]UTP incorporation)
Type: biochemical
EXPERIMENTAL_SETUP: Tables I-VIII; 20 nM NS5B, 1 hour at 22° C.; read-out: IC 50 (μM), HCV-polymerase
Provide only the numeric value, understood in µM.

O=C(O)C(O)=CC(=O)c1cccc(NS(=O)(=O)c2ccc(Cl)c(Cl)c2)c1; 0.2
O=C(O)C(O)=CC(=O)c1cccc(NCc2ccccc2)c1; 16.7
O=C(O)C(O)=CC(=O)c1ccc(N2CCCC2)s1; 11.1
O=C(O)C(O)=CC(=O)c1cccc(NS(=O)(=O)c2ccccc2)c1; 16
O=C(O)C(O)=CC(=O)c1cccc(C2=CCCc3ccccc32)c1; 20.7

-- ask Endpoint output: IC50 of O=C(O)C(O)=CC(=O)c1cccc(O)c1 . Value?
-- reply 0.94

-- ask Endpoint output: IC50 of N#Cc1ccc(COc2ccccc2C(=O)C=C(O)C(=O)O)cc1 . Value?
-- reply 28

-- ask Endpoint output: IC50 of O=C(O)C(O)=CC(=O)c1ccsc1 . Value?
-- reply 4

-- ask Endpoint output: IC50 of N#CCCCOc1cccc(OCCCC#N)c1C(=O)C=C(O)C(=O)O . Value?
-- reply 12

-- ask Endpoint output: IC50 of O=C(O)C(O)=CC(=O)c1cccn1-c1ccc(F)cc1 . Value?
-- reply 25

-- ask Endpoint output: IC50 of O=C(O)C(O)=CC(=O)c1cccc(NCc2cccc(C(=O)O)c2)c1 . Value?
-- reply 6
